Hello, the source for this data is ChEMBL document CHEMBL3102761, in case you need it.

Species on record: Homo sapiens
Assay: Selectivity ratio for S1P3R (unknown origin) to S1P1R (unknown origin)
Assay readout: Selectivity ratio

[[record]]
smiles = "CCCCCCCCOc1ccc(-c2cc([C@@](C)(N)COP(=O)(O)O)[nH]n2)cc1C(F)(F)F"
relation_sign = ">"
reading = 12000

[[record]]
smiles = "C[C@](N)(COP(=O)(O)O)c1ncc(-c2ccc(OCc3ccc(-c4ccccc4)cc3)c(C(F)(F)F)c2)o1"
relation_sign = ">"
reading = 8000

[[record]]
smiles = "CCCCCCCCOc1ccc(-c2nnc([C@@](C)(N)COP(=O)(O)O)s2)cc1C(F)(F)F"
relation_sign = "="
reading = 3290

[[record]]
smiles = "CCCCCCCCOc1ccc(-c2cc([C@@](C)(N)COP(=O)(O)O)on2)cc1C(F)(F)F"
relation_sign = "="
reading = 1210

[[record]]
smiles = "Cc1oc([C@@](C)(N)COP(=O)(O)O)nc1-c1ccc(OCc2ccc(-c3ccccc3)cc2)c(C(F)(F)F)c1"
relation_sign = ">"
reading = 5000

[[record]]
smiles = "CCCCCCCCOc1ccc(-c2cnc([C@@](C)(N)COP(=O)(O)O)s2)cc1C(F)(F)F"
relation_sign = "="
reading = 1670

[[record]]
smiles = "CCCCCCCCOc1ccc(-c2noc([C@@](C)(N)COP(=O)(O)O)n2)cc1C(F)(F)F"
relation_sign = ">"
reading = 5260

[[record]]
smiles = "C[C@](N)(COP(=O)(O)O)c1nc(-c2ccc(OCc3ccc(-c4ccccc4)cc3)c(C(F)(F)F)c2)c[nH]1"
relation_sign = "="
reading = 8860

[[record]]
smiles = "CCCCCCCCOc1ccc(-c2cnc([C@@](C)(N)COP(=O)(O)O)[nH]2)cc1C(F)(F)F"
relation_sign = "="
reading = 3340

